Experiment: solvent given as SMILES
Details: in CCOC(C)=O
So basically: fluorescence lifetime at 2 ns or higher? That is YES. Lower than 2 ns? That is NO.

- COMPOUND: "CCOC(=O)CN(CC(=O)OCC)c1ccc(-c2cc(-c3ccccn3)nc(-c3ccccn3)c2)cc1"
  LABEL_VALUE: "YES"
- COMPOUND: "COc1cc(N(c2ccccc2)c2ccc(C=C(C#N)C#N)c(OC)c2)ccc1C=C(C#N)C#N"
  LABEL_VALUE: "NO"
- COMPOUND: "CC(C)(C)OC(=O)n1ccc2c3ccc4cccc5ccc(cc21)c3c54"
  LABEL_VALUE: "YES"
- COMPOUND: "NS(=O)(=O)c1ccc(N2N=C(c3ccc(O)cc3)CC2c2ccc([N+](=O)[O-])cc2)cc1 (stereo not drawn)"
  LABEL_VALUE: "YES"
- COMPOUND: "CNc1cccc2c1C(=O)c1ccccc1C2=O"
  LABEL_VALUE: "NO"
- COMPOUND: "c1ccc(-c2cc(-c3ccc(-c4nc(-c5ccccn5)c(-c5ccccn5)[nH]4)cc3)cc(-c3ccccn3)n2)nc1"
  LABEL_VALUE: "NO"
- COMPOUND: "CCN(CC)c1ccc2nc3c4ccccc4c(=O)cc-3oc2c1"
  LABEL_VALUE: "YES"

###

Experiment: solvent given as SMILES
Details: in C1CCOC1
Cut-off 5 ns on fluorescence lifetime: below means y, at or above means n.

- COMPOUND: "Cc1ccc(C2=C3C=CC(/C=C/c4ccccc4)=[N+]3[B-](F)(F)n3c(Cl)ccc32)cc1"
  LABEL_VALUE: "y"
- COMPOUND: "[O-]c1ccccc1/C=N/c1ccccc1/N=C/c1ccccc1[O-]"
  LABEL_VALUE: "y"
- COMPOUND: "CCn1c2ccccc2c2cc(C#Cc3cc(C#Cc4ccc5c(c4)c4ccccc4n5CC)ncn3)ccc21"
  LABEL_VALUE: "y"
- COMPOUND: "CCn1c2sccc2c2c3nsnc3c3c4ccsc4n(CC)c3c21"
  LABEL_VALUE: "n"
- COMPOUND: "CC(C)[Si](C#CC1=CC2=c3cc(C#C[Si](C(C)C)(C(C)C)C(C)C)c4nc(C(F)(F)C(F)(F)C(F)(F)F)nc5c(C#C[Si](C(C)C)(C(C)C)C(C)C)cc(c3c54)C3=CC(C#C[Si](C(C)C)(C(C)C)C(C)C)=C4N=C(C(F)(F)C(F)(F)C(F)(F)F)N=C1C4C32)(C(C)C)C(C)C (centres undefined)"
  LABEL_VALUE: "y"
- COMPOUND: "Cc1nc(-c2ccc(-n3c4ccccc4c4ccccc43)cc2)cc(-c2ccc(-n3c4ccccc4c4ccccc43)cc2)n1"
  LABEL_VALUE: "y"
- COMPOUND: "CN(C)c1c2ccccc2cc2ccccc12"
  LABEL_VALUE: "n"
- COMPOUND: "COc1ccc(C2=CC(c3ccc4cc(N(C)C)ccc4c3)=[O+][B-](F)(F)O2)cc1"
  LABEL_VALUE: "y"
- COMPOUND: "COc1ccc(N(c2ccc(OC)cc2)c2ccc3ccc4c(B(c5c(C)cc(C)cc5C)c5c(C)cc(C)cc5C)ccc5ccc2c3c54)cc1"
  LABEL_VALUE: "y"
- COMPOUND: "N#Cc1ccc(/C=C/c2ccc(C=C(c3ccccc3)c3ccccc3)cc2)cc1"
  LABEL_VALUE: "y"
- COMPOUND: "C[Si](C)(C)C#CC1=CC2=c3cc(C#C[Si](C)(C)C)c4nc(C(F)(F)C(F)(F)C(F)(F)F)nc5c(C#C[Si](C)(C)C)cc(c3c54)C3=CC(C#C[Si](C)(C)C)=C4N=C(C(F)(F)C(F)(F)C(F)(F)F)N=C1C4C32 (centres undefined)"
  LABEL_VALUE: "y"
- COMPOUND: "c1ccc(-c2nn(-c3ccccc3)c3nc4ccccc4cc23)cc1"
  LABEL_VALUE: "n"
- COMPOUND: "N#Cc1ccc(/C=C/c2c3ccccc3cc3ccccc23)cc1"
  LABEL_VALUE: "y"
- COMPOUND: "FC(F)(F)C(F)(F)C(F)(F)C1=NC2=C(Br)C=C3c4cc(Br)c5nc(C(F)(F)C(F)(F)C(F)(F)F)nc6c(Br)cc(c4c56)=C4C=C(Br)C(=N1)C2C34 (centres undefined)"
  LABEL_VALUE: "y"
- COMPOUND: "Cn1cccc1-c1cc(C#N)ccc1C#N"
  LABEL_VALUE: "n"
- COMPOUND: "O=C1c2ccc3c4ccc5c6c(ccc(c7ccc(c2c37)C(=O)N1c1ccc(O)cc1)c64)C(=O)N(c1ccc(O)cc1)C5=O"
  LABEL_VALUE: "y"
- COMPOUND: "CCC1(CC)c2cc(/C=C/c3cccs3)ccc2-c2c1c1c(c3c2C(CC)(CC)c2cc(/C=C/c4cccs4)ccc2-3)C(CC)(CC)c2cc(/C=C/c3cccs3)ccc2-1"
  LABEL_VALUE: "y"
- COMPOUND: "Cc1cc(C)n2c1C=C1c3ccccc3C(c3ccc[nH]3)=[N+]1[B-]2(F)F"
  LABEL_VALUE: "n"
- COMPOUND: "CC(C)(C)NC1=CC2=c3cc(NC(C)(C)C)c4nc(C(F)(F)C(F)(F)C(F)(F)F)nc5c(NC(C)(C)C)cc(c3c54)C3=CC(NC(C)(C)C)=C4N=C(C(F)(F)C(F)(F)C(F)(F)F)N=C1C4C32 (centres undefined)"
  LABEL_VALUE: "n"
- COMPOUND: "COc1ccc(N(c2ccc(OC)cc2)c2cc3ccc4cc(B(c5c(C)cc(C)cc5C)c5c(C)cc(C)cc5C)cc5ccc(c2)c3c45)cc1"
  LABEL_VALUE: "n"
- COMPOUND: "CN1CCN(c2ccc3c4c(cccc24)C(=O)c2ccccc2-3)CC1"
  LABEL_VALUE: "n"
- COMPOUND: "O=C(O)c1ccccc1Nc1cccc(C(F)(F)F)c1"
  LABEL_VALUE: "y"
- COMPOUND: "CCCCCCCCOc1ccc2c3cccc4c(OCCCCCCCC)ccc(c5cccc1c52)c43"
  LABEL_VALUE: "y"

Values were extracted from the Deep4Chem optical property database.
